Test system: A. baumannii isolates
Experiment: Checkerboard testing (compound (I)/antibacterial agent interaction, FIC index)
Format: cell-based, Acinetobacter baumannii
Conditions: Acinetobacter baumannii, A. baumannii 670348, susceptible; read-out: MIC
measured-quantity: MIC (mg/L)
Please give a number only; it is taken to be in mg/L.

**Q:** What does the record list as MIC for NCC[C@H](O)C(=O)N[C@@H]1C[C@H](N)[C@@H](O[C@H]2O[C@H](CN)[C@@H](O)[C@H](O)[C@H]2O)[C@H](O)[C@H]1O[C@H]1O[C@H](CO)[C@@H](O)[C@H](N)[C@H]1O ?
**A:** 8

**Q:** What does the record list as MIC for CCc1cc(O)c(Oc2ccc(C(N)=O)cc2F)cc1F ?
**A:** 2

**Q:** What does the record list as MIC for NC[C@H]1O[C@H](O[C@H]2[C@H](O)[C@@H](O[C@H]3O[C@H](CO)[C@@H](O)[C@H](N)[C@H]3O)[C@H](N)C[C@@H]2N)[C@H](N)C[C@@H]1O ?
**A:** 2

**Q:** What does the record list as MIC for C[C@@H](O)[C@H]1C(=O)N2C(C(=O)O)=C(S[C@@H]3CN[C@H](C(=O)N(C)C)C3)[C@H](C)[C@H]12 ?
**A:** 0.5

###

Provide the recorded MIC for the entries that follow.
System: A. baumannii isolates
Assay: Checkerboard testing (compound (I)/antibacterial agent interaction, FIC index)
Format: cell-based, Acinetobacter baumannii
Settings: Acinetobacter baumannii, A. baumannii 674340, susceptible; read-out: MIC
Please give a number only; it is taken to be in µg/mL.

**Q:** What does the record list as MIC for NCC[C@H](O)C(=O)N[C@@H]1C[C@H](N)[C@@H](O[C@H]2O[C@H](CN)[C@@H](O)[C@H](O)[C@H]2O)[C@H](O)[C@H]1O[C@H]1O[C@H](CO)[C@@H](O)[C@H](N)[C@H]1O [amikacin] ?
**A:** 4

**Q:** What does the record list as MIC for NC[C@H]1O[C@H](O[C@H]2[C@H](O)[C@@H](O[C@H]3O[C@H](CO)[C@@H](O)[C@H](N)[C@H]3O)[C@H](N)C[C@@H]2N)[C@H](N)C[C@@H]1O [tobramycin] ?
**A:** 1

**Q:** What does the record list as MIC for C[C@@H](O)[C@H]1C(=O)N2C(C(=O)O)=C(S[C@@H]3CN[C@H](C(=O)N(C)C)C3)[C@H](C)[C@H]12 [meropenem] ?
**A:** 0.5

**Q:** What does the record list as MIC for CCc1cc(O)c(Oc2ccc(C(N)=O)cc2F)cc1F [compound (I)] ?
**A:** 2

###

Provide the recorded MIC for the entries that follow.
Tested on: A. baumannii isolates
Assay: Checkerboard testing (compound (I)/antibacterial agent interaction, FIC index)
Type: cell-based, Acinetobacter baumannii
Details: Acinetobacter baumannii, A. baumannii 661954, amikacin-resistant; read-out: MIC
Please give a number only; it is taken to be in µg/mL.

**Q:** What does the record list as MIC for NCC[C@H](O)C(=O)N[C@@H]1C[C@H](N)[C@@H](O[C@H]2O[C@H](CN)[C@@H](O)[C@H](O)[C@H]2O)[C@H](O)[C@H]1O[C@H]1O[C@H](CO)[C@@H](O)[C@H](N)[C@H]1O [amikacin] ?
**A:** 512

**Q:** What does the record list as MIC for C[C@@H](O)[C@H]1C(=O)N2C(C(=O)O)=C(S[C@@H]3CN[C@H](C(=O)N(C)C)C3)[C@H](C)[C@H]12 [meropenem] ?
**A:** 1

**Q:** What does the record list as MIC for NC[C@H]1O[C@H](O[C@H]2[C@H](O)[C@@H](O[C@H]3O[C@H](CO)[C@@H](O)[C@H](N)[C@H]3O)[C@H](N)C[C@@H]2N)[C@H](N)C[C@@H]1O [tobramycin] ?
**A:** 1

**Q:** What does the record list as MIC for CCc1cc(O)c(Oc2ccc(C(N)=O)cc2F)cc1F [compound (I)] ?
**A:** 4

Values were extracted from patent US20150065416A1.
